target: Amine oxidase [flavin-containing] A (Homo sapiens); experiment: Inhibition of human MAOA at 0.1 mM pre-incubated for 10 mins before p-tyramine substrate addition and measured after 10 mins by amplex red reagent-based microplate fluorescence reader analysis
Sequence (P21397 whole entry): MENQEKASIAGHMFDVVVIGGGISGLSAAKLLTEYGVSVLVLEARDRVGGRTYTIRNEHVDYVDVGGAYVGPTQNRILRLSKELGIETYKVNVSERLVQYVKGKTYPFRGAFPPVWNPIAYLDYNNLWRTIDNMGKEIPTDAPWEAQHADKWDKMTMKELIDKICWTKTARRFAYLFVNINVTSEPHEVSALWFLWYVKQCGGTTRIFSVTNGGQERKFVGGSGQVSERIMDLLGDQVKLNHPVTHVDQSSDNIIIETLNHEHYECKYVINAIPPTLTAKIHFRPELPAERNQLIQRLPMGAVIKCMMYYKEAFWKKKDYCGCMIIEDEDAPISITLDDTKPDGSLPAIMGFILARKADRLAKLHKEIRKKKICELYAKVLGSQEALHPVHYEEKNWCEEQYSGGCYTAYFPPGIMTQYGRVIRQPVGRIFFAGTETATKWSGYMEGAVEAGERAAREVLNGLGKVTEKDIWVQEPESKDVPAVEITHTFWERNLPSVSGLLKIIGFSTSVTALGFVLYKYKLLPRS
Attribute: inhibition at 100 µM

Consider the reported inhibition at 100 µM for these molecules:
CN1c2c(nn(-c3ccc(/C=N/NC(=S)Nc4ccccc4)cc3)c2-c2ccccc2)-c2ccccc2S1(=O)=O ... > 50%
CN1c2c(nn(-c3ccc(/C=N/NC(=S)Nc4ccc(F)cc4)cc3)c2-c2ccccc2)-c2ccccc2S1(=O)=O ... > 50%

// next item, inhibition at 100 µM requested
Quote inhibition at 100 µM reported for Cc1c2c(nn1-c1ccc(/C=N/NC(=S)Nc3cccc(Cl)c3)cc1)-c1ccccc1S(=O)(=O)N2C please.
> 50%

* * *

Here's a batch of molecules along with measured IC50 for Amine oxidase [flavin-containing] B (Homo sapiens, UniProt P27338).
measured_metric: IC50 (nM)

Before answering, review these 5 worked examples.
CN1c2c(nn(-c3ccc(/C=N/NC(=S)Nc4ccccc4)cc3)c2-c2ccccc2)-c2ccccc2S1(=O)=O ... 2490
CN1c2c(nn(-c3ccc(/C=N/NC(=S)Nc4ccc(Cl)cc4)cc3)c2-c2ccccc2)-c2ccccc2S1(=O)=O ... 3270
Cc1c2c(nn1-c1ccc(/C=N/NC(=S)Nc3ccccc3Cl)cc1)-c1ccccc1S(=O)(=O)N2C ... 6210
Cc1c2c(nn1-c1ccc(/C=N/NC(=S)NCN3CCOCC3)cc1)-c1ccccc1S(=O)(=O)N2C ... 4340
Cc1c2c(nn1-c1ccc(/C=N/NC(=S)Nc3ccc(Cl)cc3)cc1)-c1ccccc1S(=O)(=O)N2C ... 430

(a) CN1c2c(nn(-c3ccc(/C=N/NC(=S)NCc4ccccc4)cc3)c2-c2ccccc2)-c2ccccc2S1(=O)=O
(b) Cc1c2c(nn1-c1ccc(/C=N/NC(=S)Nc3cccc(F)c3)cc1)-c1ccccc1S(=O)(=O)N2C
Would you mind telling me which has the lower recorded IC50 between a and b ? Respond using the label that marks the chosen record.
a
(a: 640 nM, b: 1680 nM)

* * *

Biological target: Amine oxidase [flavin-containing] B (Homo sapiens, UniProt P27338)
Sequence (P27338 whole entry): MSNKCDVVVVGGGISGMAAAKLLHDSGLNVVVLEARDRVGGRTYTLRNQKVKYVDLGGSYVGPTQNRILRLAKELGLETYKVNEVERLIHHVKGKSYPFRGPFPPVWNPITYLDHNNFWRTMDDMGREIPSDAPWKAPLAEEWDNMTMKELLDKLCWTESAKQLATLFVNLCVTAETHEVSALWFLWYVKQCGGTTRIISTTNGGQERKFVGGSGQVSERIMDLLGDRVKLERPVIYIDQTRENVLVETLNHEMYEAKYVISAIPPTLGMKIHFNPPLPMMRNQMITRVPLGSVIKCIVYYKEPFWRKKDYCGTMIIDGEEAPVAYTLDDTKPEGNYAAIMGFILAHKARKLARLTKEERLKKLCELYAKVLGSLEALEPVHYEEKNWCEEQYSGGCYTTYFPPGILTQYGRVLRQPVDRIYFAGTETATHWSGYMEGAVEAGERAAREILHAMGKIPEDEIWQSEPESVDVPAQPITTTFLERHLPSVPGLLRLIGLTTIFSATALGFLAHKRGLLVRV
measured_metric: IC50 (µM)

Previously resolved entries follow.
CN1c2c(nn(-c3ccc(/C=N/NC(=S)Nc4cccc(F)c4)cc3)c2-c2ccccc2)-c2ccccc2S1(=O)=O ... 1.76
CN1c2c(nn(-c3ccc(/C=N/NC(N)=S)cc3)c2-c2ccccc2)-c2ccccc2S1(=O)=O ... 2.39

(P) CCc1ccc(NC(=S)N/N=C/c2ccc(-n3nc4c(c3C)N(C)S(=O)(=O)c3ccccc3-4)cc2)cc1
(Q) CCc1ccc(NC(=S)N/N=C/c2ccc(-n3nc4c(c3-c3ccccc3)N(C)S(=O)(=O)c3ccccc3-4)cc2)cc1
Pick one: P or Q . Which has the bigger IC50 number? Output the label that corresponds to your choice.
P
